test: clinical; format: in vivo, human; conditions: human, in vivo, Plasma concentration (CH-derived)
quantity measured: concentration at 6 day (ng/mL)
Numbers only, in ng/mL.

Reported concentration at 6 day ( O=C(O)C(Cl)Cl [DCA, Dichloroacetate] ) = 1300

* * *

test: clinical; assay type: in vivo, human; conditions: both, human, in vivo, Plasma level (mean ± SD)
quantity measured: concentration at 6 day (ng/mL)
Give bare numbers, in ng/mL.

So, O=C(O)C(Cl)Cl [DCA, Dichloroacetate] ? Its concentration at 6 day was 1600
